# Test system: renal cancer cell lines
# assay method text: NCI-60 screen, renal cell lines
# Assay type: cell-based, human
# recorded conditions: Homo sapiens, NCI-60 preliminary screening, read-out: Percent (%) Inhibition of Cancer Cell Line, Renal Cell
I'd appreciate it if you could supply inhibition at 10 µM values for the items below.
Give bare numbers, in %.

Worked cases, answers included:
molecule | tested on | inhibition at 10 µM [%]
COc1cc2c(cc1OC)C1(NCC2)C(=O)Nc2ccc(Cl)cc21 (stereo not drawn) [Compound 5b] | renal cancer cell lines | 22
COc1ccc2c(c1)CCNC21C(=O)Nc2ccccc21 (stereo not drawn) [Compound 4a] | renal cancer cell lines | 20
COc1cc2c(c(OC)c1OC)C1(NCC2)C(=O)Nc2ccccc21 (stereo not drawn) [Compound 6a] | renal cancer cell lines | 22
O=C1Nc2ccc(Cl)cc2C12NCCc1cc(O)ccc12 (stereo not drawn) [Compound 2b] | renal cancer cell lines | 17

With those in mind, consider the next molecule.
[Q] Reported inhibition at 10 µM, molecule COc1cc2c(cc1OC)C1(NCC2)C(=O)N(Cc2ccc(C)cc2)c2ccccc21 (stereo not drawn) [Compound 5e] : ____
[A] 25

----------
# Test system: leukemia cell lines
# assay method text: NCI-60 screen, leukemia cell lines
# Type: cell-based
# recorded conditions: Homo sapiens, NCI-60 preliminary screening, read-out: Percent (%) Inhibition of Cancer Cell Line, Leukemia
test readout: inhibition at 10 µM

Worked cases, answers included:
molecule | inhibition at 10 µM
O=C1N(Cc2ccc(Cl)c(Cl)c2)c2ccccc2C12NCCc1cc(O)ccc12 (stereo not drawn) | 19%
COc1cc2c(c(OC)c1OC)C1(NCC2)C(=O)Nc2ccccc21 (stereo not drawn) | 22%
COc1cc2c(cc1OC)C1(NCC2)C(=O)Nc2c(Br)cc(Br)cc21 (stereo not drawn) | 24%
Cc1ccc(CN2C(=O)C3(NCCc4cc(O)ccc43)c3ccccc32)cc1 (stereo not drawn) | 24%
COc1cc2c(cc1OC)C1(NCC2)C(=O)N(Cc2ccc(Br)cc2)c2ccc(Cl)cc21 (stereo not drawn) | 38 to 55%

With those in mind, consider the next molecule.
[Q] Reported inhibition at 10 µM, molecule COc1cc2c(cc1OC)C1(NCC2)C(=O)N(Cc2ccc(C)cc2)c2ccccc21 (stereo not drawn) : ____
[A] 24 to 48%

----------
I'd appreciate it if you could supply inhibition at 0.1 µM values for the items below.
# tested on: sphingosine-1-phosphate receptor 1 (S1PR1) (Homo sapiens, UniProt P21453)
# Sequence (P21453 whole entry, species assumed): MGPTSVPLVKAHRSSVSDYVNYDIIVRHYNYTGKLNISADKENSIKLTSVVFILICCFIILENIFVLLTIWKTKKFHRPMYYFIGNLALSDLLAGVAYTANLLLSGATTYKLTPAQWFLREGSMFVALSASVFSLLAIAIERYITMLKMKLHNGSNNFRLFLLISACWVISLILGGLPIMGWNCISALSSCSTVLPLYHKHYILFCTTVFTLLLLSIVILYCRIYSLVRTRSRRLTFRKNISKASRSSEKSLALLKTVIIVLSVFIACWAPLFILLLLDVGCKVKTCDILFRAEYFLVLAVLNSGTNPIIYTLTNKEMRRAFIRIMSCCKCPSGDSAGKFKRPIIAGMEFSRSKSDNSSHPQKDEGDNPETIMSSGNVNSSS
# assay method text: Radioligand binding to sphingosine-1-phosphate receptor 1
# recorded conditions: test compound 100 nM, 0.2 nM radioligand; read-out: % INHIBITION of binding to the SIP1 Receptor
One number for each entry, in %.

Worked cases, answers included:
compound | value units | inhibition at 0.1 µM
COc1ccc2c(c1)CCNC21C(=O)N(Cc2ccc(F)cc2)c2ccccc21 (stereo not drawn) [Compound 4d] | % | 41.5
COc1cc2c(cc1OC)C1(NCC2)C(=O)N(Cc2ccc(C)cc2)c2ccccc21 (stereo not drawn) [Compound 5e] | % | 32.4
COc1cc2c(c(OC)c1OC)C1(NCC2)C(=O)Nc2ccccc21 (stereo not drawn) [Compound 6a] | % | 38.4

[Q] Reported inhibition at 0.1 µM, compound COc1cc2c(c(OC)c1OC)C1(NCC2)C(=O)N(Cc2ccc(C)cc2)c2ccccc21 (stereo not drawn) [Compound 6e] : ____
[A] 31.3

----------
I'd appreciate it if you could supply inhibition at 10 µM values for the items below.
# Tested on: renal cancer cell lines
# assay method text: NCI-60 screen, renal cell lines
# Format: cell-based, human
# recorded conditions: Homo sapiens, NCI-60 preliminary screening, read-out: Percent (%) Inhibition of Cancer Cell Line, Renal Cell
One number for each entry, in %.

compound | inhibition at 10 µM [%]
O=C1Nc2ccccc2C12NCCc1cccc(O)c12 (stereo not shown) | 14

[Q] Reported inhibition at 10 µM, compound Cc1ccc(CN2C(=O)C3(NCCc4cc(O)ccc43)c3ccccc32)cc1 (stereo not shown) : ____
[A] 25

----------
I'd appreciate it if you could supply inhibition at 10 µM values for the items below.
# Tested on: renal cancer cell lines
# assay method text: NCI-60 screen, renal cell lines
# Format: cell-based, human
# recorded conditions: Homo sapiens, NCI-60 preliminary screening, read-out: Percent (%) Inhibition of Cancer Cell Line, Renal Cell
# Experimental: Screening for Anticancer Activity—The NCI-60 panel: Representative compounds of the invention were subjected to anticancer testing in the National Cancer Institute (NCI) 60 screen. In this screen compounds are tested on a panel of sixty human cancer cell lines chosen from the following cancers: leukemia, nonsmall cell lung cancer (NSCLC), colon, melanoma, central nervous system (CNS), ovarian, renal, prostate and breast. […]

compound | meas value
COc1cc2c(cc1OC)C1(NCC2)C(=O)Nc2ccccc21 (stereo not shown) | 25 to 37%
COc1cc2c(c(OC)c1OC)C1(NCC2)C(=O)Nc2ccc(Cl)cc21 (stereo not shown) | 28 to 31%
COc1cc2c(cc1OC)C1(NCC2)C(=O)Nc2c(Br)cc(Br)cc21 (stereo not shown) | 27 to 35%

[Q] Hi! What's the reported inhibition at 10 µM for COc1ccc2c(c1)CCNC21C(=O)N(Cc2ccc(C)cc2)c2ccccc21 (stereo not shown) on renal cancer cell lines?
[A] 30 to 46%
